- target.desc: JAK3 (Homo sapiens, UniProt P52333)
- Construct: endogenous in cells
- Sequence (P52333 whole entry): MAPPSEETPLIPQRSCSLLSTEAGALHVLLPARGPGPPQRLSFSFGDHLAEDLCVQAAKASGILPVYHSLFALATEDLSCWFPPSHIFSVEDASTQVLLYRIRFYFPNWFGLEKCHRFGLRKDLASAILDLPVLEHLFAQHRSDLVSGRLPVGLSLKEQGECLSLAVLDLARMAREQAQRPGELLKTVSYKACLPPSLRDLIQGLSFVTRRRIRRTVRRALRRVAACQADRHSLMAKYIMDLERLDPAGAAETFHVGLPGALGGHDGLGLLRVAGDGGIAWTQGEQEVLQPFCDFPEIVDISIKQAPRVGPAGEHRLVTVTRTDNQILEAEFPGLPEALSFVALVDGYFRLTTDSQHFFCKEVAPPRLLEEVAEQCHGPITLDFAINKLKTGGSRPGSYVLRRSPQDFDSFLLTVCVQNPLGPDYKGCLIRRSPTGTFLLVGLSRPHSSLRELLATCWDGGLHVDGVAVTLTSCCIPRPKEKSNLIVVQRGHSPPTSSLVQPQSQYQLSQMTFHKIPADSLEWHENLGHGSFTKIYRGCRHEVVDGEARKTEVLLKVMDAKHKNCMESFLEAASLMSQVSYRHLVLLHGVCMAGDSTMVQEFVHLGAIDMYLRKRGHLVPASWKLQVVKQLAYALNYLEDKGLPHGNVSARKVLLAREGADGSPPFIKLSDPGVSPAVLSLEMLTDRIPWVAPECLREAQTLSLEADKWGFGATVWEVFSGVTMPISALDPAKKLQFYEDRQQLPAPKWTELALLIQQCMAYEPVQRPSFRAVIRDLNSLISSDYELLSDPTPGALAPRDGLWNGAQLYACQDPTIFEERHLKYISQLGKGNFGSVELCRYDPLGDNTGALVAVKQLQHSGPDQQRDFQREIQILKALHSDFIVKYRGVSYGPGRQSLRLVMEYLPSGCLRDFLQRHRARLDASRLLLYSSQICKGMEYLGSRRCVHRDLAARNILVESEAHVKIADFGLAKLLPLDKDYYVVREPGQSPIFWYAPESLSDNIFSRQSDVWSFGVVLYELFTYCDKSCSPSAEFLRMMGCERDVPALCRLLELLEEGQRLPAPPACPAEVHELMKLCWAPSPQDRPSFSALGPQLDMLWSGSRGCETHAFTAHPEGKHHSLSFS
- assay.procedure: Kinobeads assay, JAK3
- run.conditions: mixed Molt4/Ramos cell lysate, dot blot detection
quantity: IC50

## Input Bench note: what IC50 did CN1CCN(C(=O)c2ccc(-n3ncc4cnc(Nc5cnn(C)c5)nc43)cc2)CC1 show?
## Output 100 to 1000 nM

## Input Bench note: what IC50 did Cn1cc(Nc2ncc3cnn(Cc4ccccc4OCc4ccccc4)c3n2)cn1 show?
## Output 100 to 1000 nM

## Input Bench note: what IC50 did CNS(=O)(=O)c1ccc(-n2ncc3cnc(Nc4cnn(C)c4)nc32)cc1 show?
## Output 100 to 1000 nM

## Input Bench note: what IC50 did CNC(=O)c1cc(Nc2ncc3cnn(Cc4ccccc4F)c3n2)cn1C show?
## Output < 100 nM

## Input Bench note: what IC50 did O=C1COCCN1c1ccc(F)c(Cn2ncc3cnc(Nc4cnn(CCO)c4)nc32)c1F show?
## Output < 100 nM
